Test system: TphKP.Um
Construct: gene tphK; full-length transporter expressed in Pseudomonas putida KT2440 with TphR-sfGFP reporter plasmid
Assay comment: uptake-coupled TphR-sfGFP biosensor dose response in P. putida KT2440
Assay type: cell-based, Pseudomonas umsongensis
Details: whole-cell transporter-biosensor EC50 (reflects transporter plus TphR sensor); LB, 16 h, 0.005-1 mM TPA
Quantity measured: pEC50
FYI, pEC50 means -log10 of a concentration in mol per litre.

Query: For the compound O=C(O)c1ccc(C(=O)O)cc1 [T3, terephthalic acid] , report pEC50.
Result: 4.72

* * *

System under test: PcakA.Ant (Comamonas antarctica, UniProt A0A6N1X255)
Construct: gene HUK68_11000; full-length transporter expressed in Pseudomonas putida KT2440 delta-pcaK with PcaV-sfGFP reporter plasmid; 4,5-cleavage pathway operon
Sequence (A0A6N1X255 1-458): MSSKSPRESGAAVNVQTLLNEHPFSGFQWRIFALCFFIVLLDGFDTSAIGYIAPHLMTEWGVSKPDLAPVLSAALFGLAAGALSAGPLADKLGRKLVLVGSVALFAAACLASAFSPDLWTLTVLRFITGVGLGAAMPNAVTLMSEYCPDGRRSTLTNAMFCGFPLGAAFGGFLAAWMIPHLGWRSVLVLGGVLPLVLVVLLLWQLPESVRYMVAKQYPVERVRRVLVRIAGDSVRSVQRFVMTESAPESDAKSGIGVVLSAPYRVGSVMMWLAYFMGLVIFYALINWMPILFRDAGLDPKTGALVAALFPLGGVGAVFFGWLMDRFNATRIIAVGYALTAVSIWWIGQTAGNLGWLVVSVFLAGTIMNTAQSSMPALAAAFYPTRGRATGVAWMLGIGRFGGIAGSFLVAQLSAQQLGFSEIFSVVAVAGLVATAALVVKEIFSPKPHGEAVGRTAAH
Assay comment: uptake-coupled PcaV-sfGFP biosensor dose response in P. putida KT2440 delta-pcaK
Type: cell-based
Text: uptake-coupled PcaV-sfGFP biosensor dose response in P. putida KT2440 delta-pcaK on PcakA.Ant
Quantity measured: EC50 (µM)
Your answer should be a plain number; it is taken to be in µM.

Query: Fetch value of EC50 on PcakA.Ant (Comamonas antarctica, UniProt A0A6N1X255) for O=C(O)c1ccc(O)c(O)c1 [P2, protocatechuic acid] .
Result: 735
